Measured values drawn from paper PMC8757360 for this set.

# Lookup of reported pIC50 keyed by entry
tested on: A549; experiment: MTT cytotoxicity, A549; type: cell-based; conditions: Homo sapiens, A549, 72 h, read-out: IC50 A549
Note on pIC50: it is the negative log10 of concentration, concentration in mol/L.

Given item Cc1ccc2nc(-c3ccccc3)c(-c3ccccc3)nc2c1 , the value recorded as its pIC50 is 4.71

Given item c1ccc(-c2nc3ccccc3nc2-c2ccccc2)cc1 , the value recorded as its pIC50 is 4.58

Given item Cc1ccc(-c2nc3ccccc3nc2-c2ccccc2)cc1 , the value recorded as its pIC50 is 4.62

Given item c1ccc(-c2nc3cc4ccccc4cc3nc2-c2ccccc2)cc1 [4ag, 2,3-Diphenylbenzo[g]quinoxaline] , the value recorded as its pIC50 is 4.35

* * *

# Lookup of reported pIC50 keyed by entry
tested on: A549; assay: MTT cytotoxicity, A549; format: cell-based; conditions: Homo sapiens, A549, 72 h, read-out: IC50 A549
Note on pIC50: it is the negative log10 of concentration, concentration in mol/L.

Given item COc1ccc2cc3[n+](cc2c1OC)CCc1cc2c(cc1-3)OCO2 [berberine, reference compound] , the value recorded as its pIC50 is 5.28

Given item Clc1ccc(-c2nc3ccccc3nc2-c2ccccc2)cc1 , the value recorded as its pIC50 is 4.73

* * *

system: T47D; test: MTT cytotoxicity, T47D; settings: Homo sapiens, T47D, 72 h, read-out: IC50 T47D
observable: IC50

Example entries and their recorded answers appear below.
c1ccc(-c2nc3ccccc3nc2-c2ccc3ccccc3c2)cc1; > 50 µM
COC(=O)c1ccc2nc(-c3ccccc3)c(-c3ccccc3)nc2c1; > 50 µM
c1ccc(-c2nc3cc4ccccc4cc3nc2-c2ccccc2)cc1 [4ag, 2,3-Diphenylbenzo[g]quinoxaline]; 20.5 µM
Clc1ccc(-c2nc3ccccc3nc2-c2ccccc2)cc1; 6.25 µM
N#Cc1ccc2nc(-c3ccccc3)c(-c3ccccc3)nc2c1; > 50 µM

Kindly consider the entry below.
Given item Clc1ccc2nc(-c3ccccc3)c(-c3ccccc3)nc2c1 , the value recorded as its IC50 is > 50 µM

* * *

system: HEK-293T-ACE2h cells; settings: human
observable: TC50 (concentration that caused 50% cells' death)

Example entries and their recorded answers appear below.
Brc1ccc(-c2nc3ccccc3nc2-c2ccccc2)cc1; >100 µM
c1ccc(-c2nc3ccccc3nc2-c2ccccc2)cc1; >25 µM
Cc1ccc2nc(-c3ccccc3)c(-c3ccccc3)nc2c1; 288.40 ± 17.65 µM

Kindly consider the entry below.
Given item c1ccc(-c2nc3cc4ccccc4cc3nc2-c2ccccc2)cc1 [4ag, 2,3-Diphenylbenzo[g]quinoxaline] , the value recorded as its TC50 (concentration that caused 50% cells' death) is 107.20 ± 1.64 µM

* * *

system: T47D; test: MTT cytotoxicity, T47D; details: Homo sapiens, T47D, 72 h, read-out: IC50 T47D
# Lookup of reported IC50 keyed by entry
API: value field is a number in µM; no unit string.

Example entries and their recorded answers appear below.
Cc1ccc(-c2nc3ccccc3nc2-c2ccccc2)cc1; 9.76
Cc1ccc2nc(-c3ccccc3)c(-c3ccccc3)nc2c1; 6.77
COc1ccc2cc3[n+](cc2c1OC)CCc1cc2c(cc1-3)OCO2 [berberine, reference compound]; 26.7

Kindly consider the entry below.
Given item c1ccc(-c2nc3ccccc3nc2-c2ccccc2)cc1 , the value recorded as its IC50 is 11.4
